Recorded values, source patent US20260159512A1.

The following compounds are shown together with reported IC50 values.
tested.system: BCAT2 (Homo sapiens, UniProt O15382)
Sequence (O15382 28-392): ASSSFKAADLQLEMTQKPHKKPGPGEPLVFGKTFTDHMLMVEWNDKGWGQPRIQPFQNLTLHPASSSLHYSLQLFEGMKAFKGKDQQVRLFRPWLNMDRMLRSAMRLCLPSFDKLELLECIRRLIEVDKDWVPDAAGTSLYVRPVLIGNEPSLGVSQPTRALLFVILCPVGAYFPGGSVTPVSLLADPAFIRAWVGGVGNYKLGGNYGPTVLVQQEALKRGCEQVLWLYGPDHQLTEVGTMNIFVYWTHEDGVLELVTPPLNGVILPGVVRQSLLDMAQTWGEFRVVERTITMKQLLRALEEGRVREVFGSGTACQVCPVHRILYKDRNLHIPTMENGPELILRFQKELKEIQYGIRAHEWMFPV
protocol.description: BCAT2 in vitro cell inhibition using engineered A549 cells (KMV cell assay, 13C6-KMV by LC-MS/MS)
Assay type: cell-based
Design: The result was an engineered A549 cell line that expressed endogenous BCAT2; endogenous in cells; host or cells: A549 cells with MUT and BCAT1 knocked out by CRISPR/CAS9
test.context: average where tested multiple times

Illustrative cases are given below, each with its answer.
compound | reported.result
CS(=O)(=O)N1C[C@@H](NC(=O)c2ccc(Cl)s2)C[C@@H](n2c(-c3ccccc3F)nc3cnc(-c4nc[nH]n4)cc32)C1 [Example 459] | 100 to 500 nM
O=C(N[C@H]1CCC[C@@H](n2c(COC(F)(F)F)nc3cnc(-n4nccn4)cc32)C1)c1ncc(Cl)s1 [Example 315] | 100 to 500 nM
CO[C@@H]1C[C@@H](NC(=O)c2ncc(Cl)s2)C[C@@H](n2c(-c3ccccc3F)nc3cnc(-n4nccn4)cc32)C1 (stereo in doubt) [Example 424] | ≤ 100 nM
CO[C@@H]1C[C@@H](NC(=O)c2ncc(Cl)s2)C[C@@H](n2c(-c3ccccc3F)nc3cnc(-c4nc[nH]n4)cc32)C1 (single isomer, unassigned) [Example 219] | > 1000 nM
Nc1cccc(-c2cc3c(cn2)nc(-c2ccccc2F)n3[C@@H]2CCC[C@H](NC(=O)c3ncc(Cl)s3)C2)n1 [Example 105] | ≤ 100 nM

Given CC(C)(C)Cc1nc2cnc(-c3ccccn3)cc2n1[C@@H]1CCC[C@H](NC(=O)c2ncc(Cl)s2)C1 [Example 381] , state its recorded IC50. 100 to 500 nM

Can you handle CC(C)Cc1nc2cnc(-n3nccn3)cc2n1[C@@H]1CCC[C@H](NC(=O)c2ncc(Cl)s2)[C@H]1O [Example 227] next? ≤ 100 nM

Also, O=C(N[C@H]1CCC[C@@H](n2c(-c3ccccc3F)nc3cnc(-c4nc[nH]n4)cc32)[C@@H]1O)c1ccc(Cl)s1 [Example 399] please. ≤ 100 nM

====

tested.system: UniProtKB O15382
protocol.description: BCAT2 in vitro enzyme inhibition assay (resazurin/diaphorase-coupled fluorescence)
Type: biochemical
test.context: average where tested multiple times
property.label: IC50

molecule | IC50
CNc1cc2c(cn1)nc(-c1ccccc1F)n2[C@@H]1C[C@@H](O)C[C@H](NC(=O)c2ncc(Cl)s2)C1 | ≤ 100 nM
O=C(NC1COCC(n2c(-c3ccccn3)nc3cnc(-n4ccnn4)cc32)C1)c1ncc(C(F)F)s1 (single isomer, unassigned) [Example 146] | > 1000 nM
CC(C)Cc1nc2cnc(-c3nc[nH]n3)cc2n1[C@H]1C[C@@H](NC(=O)c2ncc(Cl)s2)CN(C)C1 (single isomer, unassigned) | ≤ 100 nM
O=C(N[C@H]1CCC[C@@H](n2c(-c3ccccc3F)nc3cc(-n4ccnn4)ncc32)C1)c1ncc(C(F)F)s1 | ≤ 100 nM
O=C(NC1CCCC(n2c(-c3ccccn3)nc3cc(-c4ncon4)ncc32)C1)c1ccc(Br)s1 (stereo not drawn) | ≤ 100 nM

Now consider a different molecule.
Entry CC(C)[C@H](N)c1nc2cnc(-c3ccccn3)cc2n1[C@@H]1CCC[C@H](NC(=O)c2ncc(Cl)s2)C1 : reported IC50 = ? ≤ 100 nM

====

tested.system: UniProtKB O15382
protocol.description: BCAT2 in vitro enzyme inhibition assay (resazurin/diaphorase-coupled fluorescence)
Format: biochemical
test.context: average where tested multiple times
Item-by-item account of IC50

Here is how some molecules turned out for IC50.
molecule | IC50
Cc1cn(-c2cc3c(cn2)nc(-c2ccccn2)n3[C@@H]2CCC[C@H](NC(=O)c3ccc(Br)s3)C2)nn1 | ≤ 100 nM
CC(C)Cc1nc2cnc(-c3ccn(C(F)F)n3)cc2n1[C@H]1C[C@H](O)C[C@@H](NC(=O)c2ncc(Cl)s2)C1 (single isomer, unassigned) | > 1000 nM

Now take the following molecule into account.
Record request: IC50 value, item O=C(N[C@H]1C[C@H](O)C[C@@H](n2c(-c3ccccc3F)nc3cnc(-n4nccn4)cc32)C1)c1ncc(C(F)F)s1 (single isomer, unassigned) ≤ 100 nM

====

tested.system: BCAT2 (Homo sapiens, UniProt O15382)
protocol.description: BCAT2 in vitro enzyme inhibition assay (resazurin/diaphorase-coupled fluorescence)
Assay type: biochemical
test.context: average where tested multiple times
Procedure: BCAT2 In Vitro Enzyme Inhibition Assay 1.67× hBCAT2 Enzyme Mix: 0.33 μg/mL hBCAT2, 1× Buffer 2.5× Substrate Mix: 460 μM L-leucine, 420 μM α-KetoGlutarate, 10 U/mL glutamate dehydrogenase, 10 mM NAD, 30 μg/mL diaphorase, 20 μm Resazurin BCAT2 enzyme stock solution was diluted to prepare a 1.67× hBCAT2 Enzyme Mix. […] Reactions were quenched after one hour by the addition of 25 μL of 6% SDS and reaction progress was measured via fluorescence read (Ex 540/Em 590). […]
property.label: IC50

Example entries begin here.
compound | property.label | reported.result
O=C(N[C@H]1CCC[C@@H](n2c(-c3ccccc3F)nc3cnc(-c4ncnn4C(F)F)cc32)C1)c1ncc(Cl)s1 | IC50 | 500 to 1000 nM
CO[C@@H]1C[C@H](NC(=O)c2ncc(Cl)s2)C[C@H](n2c(-c3ccccc3F)nc3cnc(-c4nc[nH]n4)cc32)C1 (stereo in doubt) | IC50 | ≤ 100 nM
O=C(N[C@H]1CCC[C@@H](n2c(-c3ccccc3F)nc3cnc(-c4ccn[nH]4)cc32)[C@@H]1O)c1ncc(Cl)s1 | IC50 | ≤ 100 nM

// returns reported IC50 for input CC(C)Cc1nc2cnc(-n3cc(F)cn3)cc2n1[C@@H]1C[C@@H](O)C[C@H](NC(=O)c2ncc(Cl)s2)C1 ≤ 100 nM

Continue with O=C(N[C@H]1CCC[C@@H](n2c(-c3c(O)cccc3F)nc3cnc(-n4nccn4)cc32)C1)c1ncc(Cl)s1 ≤ 100 nM

Likewise for O=C(N[C@H]1CCC[C@@H](n2c(Nc3ccccc3)nc3cnc(-n4nccn4)cc32)C1)c1ncc(C(F)F)s1 ? ≤ 100 nM

Next up: Cn1cc(-c2nc3cnc(-n4ccnn4)cc3n2[C@@H]2CCC[C@H](NC(=O)c3ncc(C(F)F)s3)C2)cn1 > 1000 nM

Consider next the compound CC(C)Cc1nc2cnc(-c3ncc[nH]3)cc2n1[C@@H]1CCC[C@H](NC(=O)c2ncc(Cl)s2)C1 in the same way. ≤ 100 nM

Similarly, O=C(N[C@H]1CCC[C@@H](n2c(-c3ncccc3F)nc3cnc(-n4ccnn4)cc32)C1)c1ncc(Br)s1 ? ≤ 100 nM

Also CC1(Cc2nc3cnc(-c4nc[nH]n4)cc3n2[C@@H]2CCC[C@H](NC(=O)c3ncc(Cl)s3)C2)CC1 , if possible. ≤ 100 nM

Next compound: O=C(N[C@H]1CCC[C@@H](n2c(-n3cccn3)nc3cnc(-n4ccnn4)cc32)C1)c1ncc(C(F)F)s1 500 to 1000 nM

====

tested.system: BCAT2 (Homo sapiens, UniProt O15382)
Sequence (O15382 28-392): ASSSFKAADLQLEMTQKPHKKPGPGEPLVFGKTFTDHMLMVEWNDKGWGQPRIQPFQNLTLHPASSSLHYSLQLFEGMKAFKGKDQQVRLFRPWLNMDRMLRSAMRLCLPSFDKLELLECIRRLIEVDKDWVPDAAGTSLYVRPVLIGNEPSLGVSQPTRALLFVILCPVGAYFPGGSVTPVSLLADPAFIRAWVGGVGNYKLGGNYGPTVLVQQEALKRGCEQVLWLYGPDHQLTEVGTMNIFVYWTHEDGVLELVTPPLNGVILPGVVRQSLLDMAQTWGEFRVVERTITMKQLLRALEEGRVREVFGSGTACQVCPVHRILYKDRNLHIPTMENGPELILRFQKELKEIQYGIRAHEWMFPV
protocol.description: BCAT2 in vitro cell inhibition using engineered A549 cells (KMV cell assay, 13C6-KMV by LC-MS/MS)
Format: cell-based
Design: The result was an engineered A549 cell line that expressed endogenous BCAT2; endogenous in cells; host or cells: A549 cells with MUT and BCAT1 knocked out by CRISPR/CAS9
test.context: average where tested multiple times
pIC50: −log10 of the molar value.
Here, each record is paired with measured pIC50 data.

molecule | pIC50
NCc1ccccc1-c1nc2cnc(-c3nc[nH]n3)cc2n1[C@@H]1CCC[C@H](NC(=O)c2ncc(Cl)s2)C1 [Example 366] | < 6.00
CC(=O)N1CC(NC(=O)c2ncc(C(F)F)s2)CC(n2c(-c3ncccc3F)nc3cnc(-n4nccn4)cc32)C1 (stereo not shown) [Example 119] | 6.30 to 7.00
O=C(N[C@@H]1C[C@@H](O)C[C@H](n2c(-c3ccccc3F)nc3cnc(-c4nc[nH]n4)cc32)C1)c1ccc(Cl)s1 [Example 255] | 6.30 to 7.00

Could you now look at the following molecule, please?
GET /values?readout=pIC50&item= CC(C)Cc1nc2cnc(-c3ccn(C(F)F)n3)cc2n1[C@@H]1CCC[C@H](NC(=O)c2ncc(Cl)s2)[C@H]1O [Example 230] < 6.00
